target: PI3Kα (Homo sapiens, UniProt P42336); construct: purchased Carna Biosciences; assay: In vitro kinase inhibition assay for PI3K (ADP-Glo), PI3Kα; assay type: biochemical; settings: IC50 PI3K α, recombinant kinase, ADP-Glo, mean of two independent experiments
Sequence (P42336 whole entry, one chain of several): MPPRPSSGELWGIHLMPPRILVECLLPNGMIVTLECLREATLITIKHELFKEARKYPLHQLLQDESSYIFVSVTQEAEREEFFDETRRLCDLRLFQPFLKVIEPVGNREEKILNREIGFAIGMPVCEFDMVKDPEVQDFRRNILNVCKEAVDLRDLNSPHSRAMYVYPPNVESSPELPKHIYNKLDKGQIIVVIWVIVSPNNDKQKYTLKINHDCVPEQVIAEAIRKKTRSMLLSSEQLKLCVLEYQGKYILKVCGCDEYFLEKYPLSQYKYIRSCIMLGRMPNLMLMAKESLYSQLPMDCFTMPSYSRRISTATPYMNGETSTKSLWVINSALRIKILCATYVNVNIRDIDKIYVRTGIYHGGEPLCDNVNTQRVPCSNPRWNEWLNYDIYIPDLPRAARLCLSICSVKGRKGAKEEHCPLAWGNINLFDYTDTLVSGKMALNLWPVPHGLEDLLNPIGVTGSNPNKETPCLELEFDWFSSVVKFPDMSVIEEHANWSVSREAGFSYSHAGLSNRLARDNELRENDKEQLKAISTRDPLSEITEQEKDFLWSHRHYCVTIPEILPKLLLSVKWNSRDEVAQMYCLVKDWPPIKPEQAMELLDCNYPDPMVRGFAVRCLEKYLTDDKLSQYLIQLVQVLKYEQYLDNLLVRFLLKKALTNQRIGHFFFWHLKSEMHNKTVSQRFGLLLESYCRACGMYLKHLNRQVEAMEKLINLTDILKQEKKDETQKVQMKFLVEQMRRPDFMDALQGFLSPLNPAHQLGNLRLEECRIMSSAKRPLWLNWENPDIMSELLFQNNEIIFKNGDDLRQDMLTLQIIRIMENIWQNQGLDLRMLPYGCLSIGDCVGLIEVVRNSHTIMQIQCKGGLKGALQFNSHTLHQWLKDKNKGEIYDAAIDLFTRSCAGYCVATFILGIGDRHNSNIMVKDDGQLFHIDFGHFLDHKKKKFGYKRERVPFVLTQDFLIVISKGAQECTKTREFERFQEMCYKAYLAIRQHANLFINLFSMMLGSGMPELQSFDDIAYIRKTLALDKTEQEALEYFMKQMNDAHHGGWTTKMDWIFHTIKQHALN

Compound	IC50 (µM)
COc1ccc(N2CCN(Cc3cc4nc(-c5cccc6[nH]ccc56)cc(N5CCOCC5)n4n3)CC2)cc1 [Compound 32]	8.79
CC(C)(C(N)=O)N1CCN(Cc2cc3nc(-c4cccc5[nH]ccc45)cc(N4CCOCC4)n3n2)CC1 [Compound 38]	17.7
CS(=O)(=O)N1CCN(Cc2cc3nc(-c4cccc5[nH]ccc45)cc(N4CCOCC4)n3n2)CC1 [Compound 23]	2.35
CC(C)(C)N1CCN(Cc2cc3nc(-c4c(F)ccc5[nH]ccc45)cc(N4CCOCC4)n3n2)CC1 [Compound 53]	19.3
c1cc(-c2cc(N3CCOCC3)n3nc(CN4CC5CC4CN5C4COC4)cc3n2)c2cc[nH]c2c1 (stereo not shown) [Compound 43]	22.6
O=S1(=O)CCN(Cc2cc3nc(-c4cccc5[nH]ccc45)cc(N4CCOCC4)n3n2)CC1 [Compound 27]	8.65
CN1CCN(Cc2cc3nc(-c4cccc5[nH]ccc45)cc(N4CCOCC4)n3n2)CC1 [Compound 33]	42.4
CN(C)C1CCN(Cc2cc3nc(-c4cccc5[nH]ccc45)cc(N4CCOCC4)n3n2)CC1 [Compound 24]	6.38
CC(C)(C)N1CCN(Cc2cc3nc(-c4cncc5[nH]ccc45)cc(N4CCOCC4)n3n2)CC1 [Compound 54]	2.67
COC(=O)C1CCN(Cc2cc3nc(-c4cccc5[nH]ccc45)cc(N4CCOCC4)n3n2)CC1 [Compound 35]	8.46
c1cc(-c2cc(N3CCOCC3)n3nc(CN4CCN(C5CC5)CC4)cc3n2)c2cc[nH]c2c1 [Compound 39]	25.3
O=C(C1CC1)N1CCN(Cc2cc3nc(-c4cccc5[nH]ccc45)cc(N4CCOCC4)n3n2)CC1 [Compound 44]	1.27
c1cc(-c2cc(N3CCOCC3)n3nc(CN4CCN(C5CCCC5)CC4)cc3n2)c2cc[nH]c2c1 [Compound 40]	13.8
CN1CCN(C2CCN(Cc3cc4nc(-c5cccc6[nH]ccc56)cc(N5CCOCC5)n4n3)CC2)CC1 [Compound 29]	15.6
CCN1CCN(Cc2cc3nc(-c4cccc5[nH]ccc45)cc(N4CCOCC4)n3n2)CC1 [Compound 34]	34.3
CC(C)(O)C1CCN(Cc2cc3nc(-c4cccc5[nH]ccc45)cc(N4CCOCC4)n3n2)CC1 [Compound 36]	15.8

----------
Listed here are compounds together with their documented pIC50.
target: PI3Kα (Homo sapiens); construct: purchased Carna Biosciences; experiment: In vitro kinase inhibition assay for PI3K (ADP-Glo), PI3Kα; type: biochemical; details: IC50 PI3Kα, recombinant kinase, ADP-Glo, mean of two independent experiments
pIC50: −log10 of the molar value.

Mol	Censoring sign	pIC50
Cc1cc2nc(-c3cccc4[nH]ncc34)cc(N3CCOCC3)n2n1	=	5.32
Cc1cc(Nc2cc(N3CCOCC3)n3nc(C)cc3n2)[nH]n1	<	4.22
CS(=O)(=O)N1CCN(Cc2cc3nc(-c4cccc5[nH]ccc45)cc(N4CCOCC4)n3n2)CC1	=	5.63
Cc1cc2nc(-n3c(C(F)F)nc4ccccc43)cc(N3CCOCC3)n2n1	=	5.97
Cc1cc2nc(-c3cccc4[nH]ccc34)cc(N3CCOCC3)n2n1	=	4.63
Cc1cc2nc(-c3ccc(N)nc3)cc(N3CCOCC3)n2n1	=	5.33
Cc1cc2nc(-n3c(C)nc4ccccc43)cc(N3CCOCC3)n2n1	=	4.45
Cc1cc2nc(-c3cn[nH]c3)cc(N3CCOCC3)n2n1	=	4.44
CCc1nc2ccccc2n1-c1cc(N2CCOCC2)n2nc(C)cc2n1	=	4.59

----------
Assay: Kinetic solubility, shake-flask protocol
Type: physicochemical
Conditions: aqueous buffer, kinetic from dmso stock, pH 7.4 phosphate-buffered saline, 25 °C, 500 µM compound
Method: Kinetic solubility was determined by the shake-flask protocol. Appropriate compounds (500 µM) were incubated in an aqueous buffer (0.1 M phosphate-buffered saline pH 7.4) at 25 °C with stirring at 500 rpm. The samples were taken at the start time and after 24 h of incubation, filtered through 0.22 µm filters, and diluted with two volumes of acetonitrile. UHPLC-UV/Vis determined sample concentrations. A calibration curve was prepared to quality the compound’s contents in the test solution.

Mol	Readout unit	Censoring sign	solubility kinetic at 24 h
CC(C)(C)N1CCN(Cc2cc3nc(-c4cccc5[nH]ccc45)cc(N4CCOCC4)n3n2)CC1	µM	=	444
CC(C)(C)N1CCN(Cc2cc3nc(-c4cncc5[nH]ccc45)cc(N4CCOCC4)n3n2)CC1	µM	>	500

----------
target: PI3Kγ (Homo sapiens, UniProt P48736); construct: purchased Merck Millipore; experiment: In vitro kinase inhibition assay for PI3K (ADP-Glo), PI3Kγ; assay type: biochemical; details: ratio of IC50 PI3Kγ to IC50 PI3Kδ
Sequence (P48736 whole entry): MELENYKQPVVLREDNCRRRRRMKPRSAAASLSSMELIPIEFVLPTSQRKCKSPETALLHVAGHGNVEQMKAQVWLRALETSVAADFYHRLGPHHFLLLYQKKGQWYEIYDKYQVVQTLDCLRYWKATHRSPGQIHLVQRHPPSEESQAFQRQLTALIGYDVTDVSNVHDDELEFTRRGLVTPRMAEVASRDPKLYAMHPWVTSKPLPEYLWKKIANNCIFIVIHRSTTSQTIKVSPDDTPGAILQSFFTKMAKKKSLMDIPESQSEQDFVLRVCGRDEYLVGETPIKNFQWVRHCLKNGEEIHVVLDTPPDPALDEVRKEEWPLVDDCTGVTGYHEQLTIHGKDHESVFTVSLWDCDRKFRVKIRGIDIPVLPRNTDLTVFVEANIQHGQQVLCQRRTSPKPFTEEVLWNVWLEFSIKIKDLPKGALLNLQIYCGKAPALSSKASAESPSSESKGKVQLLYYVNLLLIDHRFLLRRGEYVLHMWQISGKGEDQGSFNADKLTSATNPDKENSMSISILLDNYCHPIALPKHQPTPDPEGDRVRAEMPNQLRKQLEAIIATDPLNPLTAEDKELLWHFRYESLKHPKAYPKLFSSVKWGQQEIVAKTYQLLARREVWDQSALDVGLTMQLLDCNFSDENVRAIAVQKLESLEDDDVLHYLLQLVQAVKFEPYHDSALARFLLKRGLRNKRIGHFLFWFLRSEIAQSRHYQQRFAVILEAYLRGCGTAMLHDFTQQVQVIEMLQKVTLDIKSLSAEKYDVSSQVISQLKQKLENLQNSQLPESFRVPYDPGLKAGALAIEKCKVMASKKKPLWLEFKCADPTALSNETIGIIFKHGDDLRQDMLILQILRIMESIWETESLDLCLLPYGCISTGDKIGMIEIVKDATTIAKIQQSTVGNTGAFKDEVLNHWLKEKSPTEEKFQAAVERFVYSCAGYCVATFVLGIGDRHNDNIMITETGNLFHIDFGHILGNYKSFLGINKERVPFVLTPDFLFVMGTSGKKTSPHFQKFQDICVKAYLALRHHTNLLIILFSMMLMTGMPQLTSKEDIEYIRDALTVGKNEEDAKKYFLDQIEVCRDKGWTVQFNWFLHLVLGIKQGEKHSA

Mol	Censoring sign	Fold Selectivity γ/δ
CN(C)C1CCN(Cc2cc3nc(-c4cccc5[nH]ccc45)cc(N4CCOCC4)n3n2)CC1	=	1332
CC(C)(O)C1CCN(Cc2cc3nc(-c4cccc5[nH]ccc45)cc(N4CCOCC4)n3n2)CC1	=	1223
CC(C)(C(N)=O)N1CCN(Cc2cc3nc(-c4cccc5[nH]ccc45)cc(N4CCOCC4)n3n2)CC1	=	428
CC(C)(O)C1CCN(Cc2cc3nc(-c4c(F)ccc5[nH]ccc45)cc(N4CCOCC4)n3n2)CC1	=	1195
CC(C)(C)C1CCN(Cc2cc3nc(-c4cccc5[nH]ccc45)cc(N4CCOCC4)n3n2)CC1	=	191
CCN1CCN(Cc2cc3nc(-c4cccc5[nH]ccc45)cc(N4CCOCC4)n3n2)CC1	>	1395
O=C(C1CC1)N1CCN(Cc2cc3nc(-c4cccc5[nH]ccc45)cc(N4CCOCC4)n3n2)CC1	=	38

----------
target: PI3Kδ (Homo sapiens, UniProt O00329); construct: purchased Merck Millipore; experiment: In vitro kinase inhibition assay for PI3K (ADP-Glo), PI3Kδ; type: biochemical; conditions: IC50 PI3K δ, recombinant kinase, mean of two independent experiments
Sequence (P27986 whole entry): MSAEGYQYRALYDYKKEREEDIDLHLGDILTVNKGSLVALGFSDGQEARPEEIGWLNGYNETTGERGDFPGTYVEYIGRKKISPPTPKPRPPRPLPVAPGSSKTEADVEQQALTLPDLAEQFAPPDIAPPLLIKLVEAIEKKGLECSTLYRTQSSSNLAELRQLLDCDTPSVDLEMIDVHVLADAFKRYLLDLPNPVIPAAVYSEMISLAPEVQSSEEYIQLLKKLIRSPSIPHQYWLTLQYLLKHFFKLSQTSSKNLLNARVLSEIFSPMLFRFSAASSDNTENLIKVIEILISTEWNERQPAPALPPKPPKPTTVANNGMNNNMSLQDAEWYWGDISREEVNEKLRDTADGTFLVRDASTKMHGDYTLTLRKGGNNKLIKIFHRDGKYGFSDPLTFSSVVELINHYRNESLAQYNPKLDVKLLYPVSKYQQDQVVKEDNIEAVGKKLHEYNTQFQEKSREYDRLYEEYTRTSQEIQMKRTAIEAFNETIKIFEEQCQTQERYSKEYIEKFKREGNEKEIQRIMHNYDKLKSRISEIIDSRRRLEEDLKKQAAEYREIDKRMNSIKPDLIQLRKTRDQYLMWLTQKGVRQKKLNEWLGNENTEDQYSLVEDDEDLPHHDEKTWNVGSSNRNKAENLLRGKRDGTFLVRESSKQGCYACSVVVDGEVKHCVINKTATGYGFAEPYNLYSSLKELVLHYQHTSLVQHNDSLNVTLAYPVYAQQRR
Sequence (O00329 whole entry): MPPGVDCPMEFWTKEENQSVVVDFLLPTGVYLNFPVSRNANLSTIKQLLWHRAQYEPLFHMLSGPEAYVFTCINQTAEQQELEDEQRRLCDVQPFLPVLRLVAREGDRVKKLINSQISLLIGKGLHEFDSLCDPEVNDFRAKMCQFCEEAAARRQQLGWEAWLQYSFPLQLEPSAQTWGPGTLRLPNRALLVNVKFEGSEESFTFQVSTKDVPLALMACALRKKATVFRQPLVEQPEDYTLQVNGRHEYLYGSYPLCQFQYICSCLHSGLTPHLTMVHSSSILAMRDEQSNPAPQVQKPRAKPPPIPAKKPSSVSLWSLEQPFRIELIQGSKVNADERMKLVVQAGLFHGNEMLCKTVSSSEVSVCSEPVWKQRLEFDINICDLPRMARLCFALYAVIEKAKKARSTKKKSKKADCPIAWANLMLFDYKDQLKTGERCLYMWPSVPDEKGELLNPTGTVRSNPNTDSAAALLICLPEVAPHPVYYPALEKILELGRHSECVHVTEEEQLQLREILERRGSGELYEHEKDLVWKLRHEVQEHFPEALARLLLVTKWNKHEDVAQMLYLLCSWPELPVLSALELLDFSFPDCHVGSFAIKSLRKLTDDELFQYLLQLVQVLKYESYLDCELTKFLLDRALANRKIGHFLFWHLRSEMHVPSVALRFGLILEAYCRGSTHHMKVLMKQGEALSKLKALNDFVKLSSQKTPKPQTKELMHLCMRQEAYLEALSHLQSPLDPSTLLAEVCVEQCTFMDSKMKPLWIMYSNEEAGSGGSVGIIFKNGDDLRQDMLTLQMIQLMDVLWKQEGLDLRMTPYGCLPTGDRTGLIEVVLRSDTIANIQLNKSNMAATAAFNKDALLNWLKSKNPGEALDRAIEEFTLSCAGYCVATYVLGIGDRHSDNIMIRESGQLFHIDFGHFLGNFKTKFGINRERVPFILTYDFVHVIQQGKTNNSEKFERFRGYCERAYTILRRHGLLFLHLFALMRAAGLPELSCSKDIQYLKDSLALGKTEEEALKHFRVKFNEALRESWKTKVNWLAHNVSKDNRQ
pIC50: −log10 of the molar value.

Molecule	pIC50
CC(C)(C)N1CCN(Cc2cc3nc(-c4cncc5[nH]ccc45)cc(N4CCOCC4)n3n2)CC1 [Compound 54]	8.55

----------
target: PI3Kδ (Homo sapiens); construct: purchased Merck Millipore; test: In vitro kinase inhibition assay for PI3K (ADP-Glo), PI3Kδ; type: biochemical; details: recombinant kinase, mean of two independent experiments, read-out: IC50 PI3K δ
Consider the cut-off 40 nM. If the recorded IC50 is strictly smaller, the label is yes (1); if not, the label is no (0).

Compound	Class
COC(=O)C1CCN(Cc2cc3nc(-c4cccc5[nH]ccc45)cc(N4CCOCC4)n3n2)CC1 [Compound 35]	no (0)
c1cc(-c2cc(N3CCOCC3)n3nc(CN4CCN(C5COC5)CC4)cc3n2)c2cc[nH]c2c1 [Compound 42]	no (0)
CC(C)(C)N1CCN(Cc2cc3nc(-c4cccc5[nH]ccc45)cc(N4CCOCC4)n3n2)CC1 [Compound 37]	yes (1)
c1cc(-c2cc(N3CCOCC3)n3nc(CN4CCN(CC5CC5)CC4)cc3n2)c2cc[nH]c2c1 [Compound 45]	yes (1)
CC(C)(O)C1CCN(Cc2cc3nc(-c4ccnc5[nH]ccc45)cc(N4CCOCC4)n3n2)CC1 [Compound 51]	yes (1)
COc1ccc(N2CCN(Cc3cc4nc(-c5cccc6[nH]ccc56)cc(N5CCOCC5)n4n3)CC2)cc1 [Compound 32]	no (0)
CC(C)(C)N1CCN(Cc2cc3nc(-c4ccnc5[nH]ccc45)cc(N4CCOCC4)n3n2)CC1 [Compound 55]	no (0)
O[C@@H]1CCN(Cc2cc3nc(-c4cccc5[nH]ccc45)cc(N4CCOCC4)n3n2)C1 [Compound 25]	no (0)
O=S1(=O)CCN(Cc2cc3nc(-c4cccc5[nH]ccc45)cc(N4CCOCC4)n3n2)CC1 [Compound 27]	no (0)
c1cc(-c2cc(N3CCOCC3)n3nc(CN4CCOCC4)cc3n2)c2cc[nH]c2c1 [Compound 28]	no (0)
CC(C)(O)C1CCN(Cc2cc3nc(-c4cncc5[nH]ccc45)cc(N4CCOCC4)n3n2)CC1 [Compound 50]	yes (1)
O[C@H]1CCN(Cc2cc3nc(-c4cccc5[nH]ccc45)cc(N4CCOCC4)n3n2)C1 [Compound 26]	no (0)
CS(=O)(=O)N1CCN(Cc2cc3nc(-c4cccc5[nH]ccc45)cc(N4CCOCC4)n3n2)CC1 [Compound 23]	no (0)
CC(C)(C)N1CCN(Cc2cc3nc(-c4c(F)ccc5[nH]ccc45)cc(N4CCOCC4)n3n2)CC1 [Compound 53]	yes (1)
CN(C)C1CCN(Cc2cc3nc(-c4cccc5[nH]ccc45)cc(N4CCOCC4)n3n2)CC1 [Compound 24]	yes (1)
